Origin of values: patent US10316028B2

target system: human Orexin-2 receptor (Homo sapiens, UniProt O43614)
Construct: expressed in transfected cells; host or cells: HEK293 cells (transient transfection, Genejuice); membranes
Sequence (O43614 1-444): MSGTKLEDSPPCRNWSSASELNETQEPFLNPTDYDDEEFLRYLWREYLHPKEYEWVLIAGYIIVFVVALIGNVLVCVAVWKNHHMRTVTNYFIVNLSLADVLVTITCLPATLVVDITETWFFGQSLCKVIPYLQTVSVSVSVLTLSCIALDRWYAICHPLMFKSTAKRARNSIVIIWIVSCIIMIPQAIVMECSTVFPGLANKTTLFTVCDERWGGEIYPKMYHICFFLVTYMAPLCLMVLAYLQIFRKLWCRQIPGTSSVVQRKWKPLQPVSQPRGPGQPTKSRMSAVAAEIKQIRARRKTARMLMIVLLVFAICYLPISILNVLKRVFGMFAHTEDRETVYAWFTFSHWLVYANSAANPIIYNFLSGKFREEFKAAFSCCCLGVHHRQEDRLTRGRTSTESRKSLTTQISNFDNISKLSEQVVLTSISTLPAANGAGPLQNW
method description: 3H-EMPA radioligand binding assay
condition context: 3H-EMPA displacement, membranes of HEK293 cells transfected with human Orexin-2 receptor; KI by Cheng-Prussoff; read-out: OX2 pKi ave (converted)
Below is a list of entries, each paired with its recorded log10 of Ki value.
In our notation, the value equals log10 of Ki in nM.

Use the examples below as a reference point.
Request: For CNc1nc(N2C(=O)N(Cc3c(F)cc(OC)cc3F)c3ccccc3S2(=O)=O)ccc1OC , what is its reported log10 of Ki?
Response: 0.57

Request: Now the molecule COc1ccc(N2C(=O)N(Cc3c(C)cccc3C)c3ccccc3S2(=O)=O)cc1OC
Response: 0.95

Request: Now the molecule COc1cc(N2C(=O)N(Cc3c(F)cc(F)cc3Cl)c3ncccc3S2(=O)=O)cnc1OC
Response: 0.62

Request: Now the molecule COc1cc(N2C(=O)N(Cc3c(F)cccc3F)c3ccccc3S2(=O)=O)cc(OC)n1
Response: 0.34

Request: Now the molecule O=C1N(Cc2c(F)cccc2Cl)c2ccccc2S(=O)(=O)N1c1ccc(Cl)cc1
Response: 0.85

Request: Now the molecule COc1c(C)cc(N2C(=O)N(Cc3c(F)cccc3Cl)c3ccccc3S2(=O)=O)cc1C
Response: -1.08

Request: Now the molecule Cc1nc(CN2C(=O)N(Cc3c(F)cccc3F)c3ccccc3S2(=O)=O)cs1
Response: 1.82

Request: Now the molecule Cc1cccc(N2C(=O)N(Cc3c(F)cccc3Cl)c3ccccc3S2(=O)=O)c1C
Response: 1.20

Others:
Request: For COc1cc(OC)cc(N2C(=O)N(Cc3c(F)cccc3Cl)c3ccccc3S2(=O)=O)c1 , what is its reported log10 of Ki?
Response: 0.03

Request: Now the molecule CCc1ccc(N2C(=O)N(Cc3c(F)cccc3Cl)c3ccccc3S2(=O)=O)cc1
Response: 0.70

Request: Now the molecule CCN1CCCC(N2C(=O)N(Cc3c(F)cccc3F)c3ccccc3S2(=O)=O)C1 (stereo not drawn)
Response: 2.82

Request: Now the molecule COc1ccnc(CN2C(=O)N(Cc3c(F)cccc3F)c3ccccc3S2(=O)=O)c1OC
Response: 1.94

Request: Now the molecule Cn1nc(CN2C(=O)N(Cc3c(F)cccc3F)c3ccccc3S2(=O)=O)c2ccccc21
Response: 1.58

Request: Now the molecule COc1cc(N2C(=O)N(Cc3c(F)cccc3Cl)c3ccccc3S2(=O)=O)cc(OC)c1OC
Response: 0.61

Request: Now the molecule O=C1N(Cc2c(F)cccc2Cl)c2ccccc2S(=O)(=O)N1CC1CCCCC1
Response: 2.82

Request: Now the molecule COc1ccc(N2C(=O)N(Cc3ccc(F)cc3)c3ccccc3S2(=O)=O)cc1OC
Response: 1.75

Request: Now the molecule COc1cc(F)c(CN2C(=O)N(c3cc(C)cc(C)n3)S(=O)(=O)c3cccnc32)c(F)c1
Response: 0.86

Request: Now the molecule Cc1cc(C)cc(N2C(=O)N(Cc3ccccc3Cl)c3ccccc3S2(=O)=O)c1
Response: 1.49

Request: Now the molecule CSc1cccc(N2C(=O)N(CC3CCCCC3)c3ccccc3S2(=O)=O)c1
Response: 2.94

Request: Now the molecule COc1cc(F)c(CN2C(=O)N(c3ccc(OC)c(OC)n3)S(=O)(=O)c3cccnc32)c(F)c1
Response: -0.18

Request: Now the molecule COc1ccc(N2C(=O)N(Cc3c(F)cccc3F)c3ncccc3S2(=O)=O)nc1OC
Response: -0.07

Request: Now the molecule COc1cc(F)c(CN2C(=O)N(c3ccc(OC)c(OC)c3)S(=O)(=O)c3cccnc32)c(F)c1
Response: -0.89

Request: Now the molecule COc1ccc(N2C(=O)N(Cc3ccccc3C)c3c(F)cccc3S2(=O)=O)cn1
Response: 1.94

Request: Now the molecule Cc1ccc(N2C(=O)N(Cc3ccccc3Cl)c3ccccc3S2(=O)=O)cc1C
Response: 1.64

Request: Now the molecule Cn1ccnc1CN1C(=O)N(Cc2c(F)cccc2F)c2ccccc2S1(=O)=O
Response: 2.47

Request: Now the molecule COc1cccc(N2C(=O)N(Cc3ccccc3F)c3ccccc3S2(=O)=O)c1
Response: 2.30

Request: Now the molecule COc1ccc(N2C(=O)N(Cc3ccccc3F)c3ccccc3S2(=O)=O)cc1OC
Response: 0.85

Request: Now the molecule CSc1cncc(N2C(=O)N(Cc3c(F)cc(F)cc3F)c3ccccc3S2(=O)=O)c1
Response: 0.77

Request: Now the molecule COc1cc(OC)cc(N2C(=O)N(Cc3ccccc3Cl)c3ccccc3S2(=O)=O)c1
Response: 1.50

Request: Now the molecule COc1ccc(N2C(=O)N(Cc3cccc(C#N)c3)c3ccccc3S2(=O)=O)cc1OC
Response: 2.55

Request: Now the molecule COc1cc(F)c(CN2C(=O)N(c3ccc(OC)c(OC)c3)S(=O)(=O)c3ccccc32)c(F)c1
Response: -0.33

Request: Now the molecule Cc1cc(N2C(=O)N(Cc3c(F)cccc3Cl)c3ccccc3S2(=O)=O)cc(C)c1O
Response: 0.52

Request: Now the molecule COc1ccc(N2C(=O)N(Cc3ccc(Cl)cc3F)c3ccccc3S2(=O)=O)cc1OC
Response: 1.02
